Values from patent US10882859B2

experiment: Systemic pharmacokinetics and total colon tissue distribution after single oral administration; format: in vivo, male C57BL/6 mice; conditions: male, C57BL/6, mouse; mice, oral 10 mg/kg, plasma, 1 h; read-out: Mean plasma concentration
METRIC NAME: concentration at 1 h (ng/mL)
I only need the number, in ng/mL, no unit after it.

-- ask If you can, please state the reported concentration at 1 h value of CCc1cc(O)c(F)cc1-c1ccc2c(-c3nc4c([nH]3)CCN(C(=O)c3cnc(N5CCCCC5)cn3)C4)n[nH]c2c1 [Reference Compound, reference compound] .
-- reply 12.8

-- ask If you can, please state the reported concentration at 1 h value of CCc1cc(O)c(F)cc1-c1ccc2c(-c3nc4c([nH]3)CCN(C(=O)N3CCOCC3)C4)n[nH]c2c1 .
-- reply 1.8

----------
tested on: Jurkat cells; experiment: Cell cytotoxicity assay (propidium iodide, flow cytometry); format: cell-based, human; conditions: 24 h
So I've got a bunch of molecules here, and I need their % viability at 1 μg/mL values.

-- ask If you can, please state the reported % viability at 1 μg/mL value of CCc1cc(O)c(F)cc1-c1ccc2c(-c3nc4c([nH]3)CCN(S(=O)(=O)N3CCC(OC)CC3)C4)n[nH]c2c1 [Example 6(i)] .
-- reply 86%

-- ask If you can, please state the reported % viability at 1 μg/mL value of CCc1cc(O)c(F)cc1-c1ccc2c(-c3nc4c([nH]3)CCN(C(=O)c3cnc(N5CCCCC5)cn3)C4)n[nH]c2c1 [Reference Compound, reference compound] .
-- reply 49%

-- ask If you can, please state the reported % viability at 1 μg/mL value of CCc1cc(O)c(F)cc1-c1ccc2c(-c3nc4c([nH]3)CCN(C(=O)NCC3CCOCC3)C4)n[nH]c2c1 [Example 3] .
-- reply 91%

-- ask If you can, please state the reported % viability at 1 μg/mL value of CCc1cc(O)c(F)cc1-c1ccc2c(-c3nc4c([nH]3)CCN(S(=O)(=O)N3CCS(=O)(=O)CC3)C4)n[nH]c2c1 [Example 6(g)] .
-- reply 88%

-- ask If you can, please state the reported % viability at 1 μg/mL value of CCc1cc(O)c(F)cc1-c1ccc2c(-c3nc4c([nH]3)CCN(C(=O)Nc3cn(C)c(=O)n(C)c3=O)C4)n[nH]c2c1 [Example 4(d)] .
-- reply 60%

-- ask If you can, please state the reported % viability at 1 μg/mL value of CCc1cc(O)c(F)cc1-c1ccc2c(-c3nc4c([nH]3)CCN(C(=O)N(C)c3ccccc3)C4)n[nH]c2c1 [Example 2(e)] .
-- reply 92%

-- ask If you can, please state the reported % viability at 1 μg/mL value of CCc1cc(O)c(F)cc1-c1ccc2c(-c3nc4c([nH]3)CCN(S(=O)(=O)N3CCOCC3)C4)n[nH]c2c1 [Example 6(e)] .
-- reply 64%

-- ask If you can, please state the reported % viability at 1 μg/mL value of CCc1cc(O)c(F)cc1-c1ccc2c(-c3nc4c([nH]3)CCN(S(=O)(=O)N(C)C3CCOCC3)C4)n[nH]c2c1 [Example 6(c)] .
-- reply 76%

-- ask If you can, please state the reported % viability at 1 μg/mL value of CCc1cc(O)c(F)cc1-c1ccc2c(-c3nc4c([nH]3)CCN(S(=O)(=O)N3CCN(C)CC3)C4)n[nH]c2c1 [Example 6(f)] .
-- reply 29%

-- ask If you can, please state the reported % viability at 1 μg/mL value of CCc1cc(O)c(F)cc1-c1ccc2c(-c3nc4c([nH]3)CCN(C(=O)N3CCOCC3)C4)n[nH]c2c1 [Example 1] .
-- reply 40%

-- ask If you can, please state the reported % viability at 1 μg/mL value of CCc1cc(O)c(F)cc1-c1ccc2c(-c3nc4c([nH]3)CCN(C(=O)N3CCC(N5CCCCC5)CC3)C4)n[nH]c2c1 [Example 2(a)] .
-- reply 59%

-- ask If you can, please state the reported % viability at 1 μg/mL value of CCc1cc(O)c(F)cc1-c1ccc2c(-c3nc4c([nH]3)CCN(S(=O)(=O)N3CCN(S(C)(=O)=O)CC3)C4)n[nH]c2c1 [Example 5] .
-- reply 87%

-- ask If you can, please state the reported % viability at 1 μg/mL value of CCc1cc(O)c(F)cc1-c1ccc2c(-c3nc4c([nH]3)CCN(S(=O)(=O)N3CCCC3)C4)n[nH]c2c1 [Example 6(d)] .
-- reply 74%

----------
So I've got a bunch of compounds here, and I need their concentration at 0.5 h values.
experiment: Systemic pharmacokinetics and total colon tissue distribution after single oral administration; type: in vivo, male C57BL/6 mice; conditions: male, C57BL/6, mouse, total colon tissue; mice, oral 10 mg/kg, total colon, 0.5 h; read-out: Mean total colon level
I only need the number, in ng/g, no unit after it.

-- ask If you can, please state the reported concentration at 0.5 h value of CCc1cc(O)c(F)cc1-c1ccc2c(-c3nc4c([nH]3)CCN(C(=O)c3cnc(N5CCCCC5)cn3)C4)n[nH]c2c1 [Reference Compound, reference compound] .
-- reply 344

-- ask If you can, please state the reported concentration at 0.5 h value of CCc1cc(O)c(F)cc1-c1ccc2c(-c3nc4c([nH]3)CCN(C(=O)N3CCOCC3)C4)n[nH]c2c1 [Example 1] .
-- reply 327
